Entry source: ChEMBL document CHEMBL2218924

residual activity by entry:
test.system: Mitogen-activated protein kinase kinase kinase 7 (Homo sapiens) (UniProt O43318)
Sequence (O43318 whole entry): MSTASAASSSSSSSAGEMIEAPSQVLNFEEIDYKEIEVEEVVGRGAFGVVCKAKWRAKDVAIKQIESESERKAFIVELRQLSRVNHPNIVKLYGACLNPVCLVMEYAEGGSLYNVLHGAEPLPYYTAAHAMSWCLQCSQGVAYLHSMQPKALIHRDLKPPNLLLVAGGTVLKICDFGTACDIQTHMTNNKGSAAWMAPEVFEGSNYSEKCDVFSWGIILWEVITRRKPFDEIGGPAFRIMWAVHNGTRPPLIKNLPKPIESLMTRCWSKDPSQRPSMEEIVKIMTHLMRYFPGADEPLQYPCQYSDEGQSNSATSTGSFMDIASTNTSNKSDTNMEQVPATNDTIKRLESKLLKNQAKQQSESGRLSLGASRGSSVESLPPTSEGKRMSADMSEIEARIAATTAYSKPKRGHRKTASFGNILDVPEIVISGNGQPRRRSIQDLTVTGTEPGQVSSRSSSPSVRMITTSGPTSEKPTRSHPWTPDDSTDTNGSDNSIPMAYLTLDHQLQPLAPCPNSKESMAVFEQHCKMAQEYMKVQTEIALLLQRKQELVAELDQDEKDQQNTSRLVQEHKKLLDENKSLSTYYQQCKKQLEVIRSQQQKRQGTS
condition.description: at 1 µM
Answer with a number only, understood to be in %.

Here is how some compounds turned out for residual activity.
GET /value?item= CCN(CC)C(=O)c1ccc(Nc2nc(OCC3CCCCC3)c3nc[nH]c3n2)cc1 &field=residual activity returns 47

The recorded residual activity for O=C1NC(=O)/C(=C/c2ccc3c(c2)OC(F)(F)O3)S1 is 96

residual activity measured on Cc1ccc(S(=O)(=O)/C=C/C#N)cc1 = 96

Please fill in: residual activity reported for Oc1c2ccccc2c2c3c(cccc13)N=N2 = 41

// next entry
Recorded result, COc1cc2ncnc(N3CCN(C(=O)Nc4ccc(Oc5ccccc5)cc4)CC3)c2cc1OC , residual activity: 85
